QUANTITY: intrinsic clearance, human liver microsomes (mL/min/kg)
// return numeric value only (unit: mL/min/kg, not printed)

Illustrative cases are given below, each with its answer.
Cc1cccc(N2CCN(C(=O)c3cncnc3C(C)C)CC2)c1 = 144
N#Cc1c(Cl)nc(N)n1-c1ccccc1 = 11.7
Cc1nc(N(C)C)nc(C)c1NC(=O)C1CCCCC1 = 6.25
O=C(c1ccc(NS(=O)(=O)c2cccc3cccnc23)cc1)N1CCN(CC2CC2)CC1 = 75.9
CN(C)C(=O)C1(Cc2ccccc2-c2cccc(F)c2)CCN(C(=O)C2CC=CCC2)CC1 (configuration not stated) = 997

Data request: Requested field: intrinsic clearance, human liver microsomes. Item: "Clc1cnc(Oc2ccc3cn[nH]c3c2)nc1"
Data returned: 12.9

Data request: Which value of intrinsic clearance, human liver microsomes has been reported for "CCc1cc(CNC(=O)Nc2ccc(N3CCSCC3)cc2)on1" in the records?
Data returned: 35.9

Data request: I have this compound here, "COc1cccc(CNc2ncc(-c3ccccc3)n2C)c1" , and I need its recorded intrinsic clearance, human liver microsomes.
Data returned: 938

Data request: Field request: intrinsic clearance, human liver microsomes | item: "Cc1ccc(C#N)c(NCc2ccccc2-n2ccnc2)n1"
Data returned: 45.7

Data request: So what's the measured intrinsic clearance, human liver microsomes for this one? "Cc1cc(C)cc(OCCN(C)C(=O)NCCS(=O)(=O)N(C)C)c1"
Data returned: 37.4
